B1: library; numbered along this chain (parent)
chain: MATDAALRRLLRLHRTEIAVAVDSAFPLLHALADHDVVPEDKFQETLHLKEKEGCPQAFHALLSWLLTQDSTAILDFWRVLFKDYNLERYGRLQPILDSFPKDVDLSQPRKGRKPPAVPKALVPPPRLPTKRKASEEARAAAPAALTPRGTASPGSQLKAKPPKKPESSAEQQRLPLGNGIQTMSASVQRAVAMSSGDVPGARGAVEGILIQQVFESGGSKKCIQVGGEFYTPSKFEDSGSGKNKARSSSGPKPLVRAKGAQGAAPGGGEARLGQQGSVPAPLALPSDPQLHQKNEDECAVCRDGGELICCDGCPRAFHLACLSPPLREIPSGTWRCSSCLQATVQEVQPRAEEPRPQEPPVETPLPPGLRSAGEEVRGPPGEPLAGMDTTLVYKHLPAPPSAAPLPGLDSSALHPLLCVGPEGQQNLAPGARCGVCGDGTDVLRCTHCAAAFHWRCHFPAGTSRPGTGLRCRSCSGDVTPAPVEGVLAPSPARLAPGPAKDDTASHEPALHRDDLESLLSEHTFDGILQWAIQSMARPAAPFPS

Variants of: B1
TEST_NAME: AIRE transcriptional activation functional score (insulin promoter-GFP; nonsense median 0, synonymous median 1) (normalised score); higher = higher AIRE activity (more reporter activation)
PROTOCOL_CONDITIONS: with insulin promoter-GFP reporter in HEK293
ENDPOINT_LABEL: AIRE transcriptional activation functional score
One number for each entry.

S24P -0.246
L210E -0.0363
P384G 1.62
I330W 0.987

Give measured AIRE transcriptional activation functional score for every item shown.
1. C437H
2. G469K
3. R113Y
4. A510P
5. L63S
6. V377P
7. D439Y
8. Q293K

A.
1: 0.0985; 2: 0.564; 3: 0.831; 4: 1.35; 5: -0.272; 6: 1.28; 7: 1.35; 8: 1.16

Give measured AIRE transcriptional activation functional score for every item shown.
1. E53V
2. R139H
3. L511P
4. V37W
5. G240T
6. L428C
7. S332D

A.
1. 1.36
2. 0.679
3. 0.736
4. -0.538
5. 1.47
6. 0.816
7. 0.652

Give measured AIRE transcriptional activation functional score for every item shown.
1. L128Q
2. T441R
3. G180D

A.
1: 0.496; 2: 0.696; 3: 0.474
